Please provide measured IC50 for the entries that follow.
assay_target: CDK12/CycK (Homo sapiens)
assay_name: CDK12/CycK high ATP kinase assay (TR-FRET, 2 mM ATP)
measurement_parameters: 2 mM ATP (high ATP); median; read-out: CDK12/CyclinK, 2 mM ATP (high ATP), IC50-[mol/l] (median)

Answered examples (3):
COC1CCN(c2nc(NCc3nnc(-c4ccccc4)[nH]3)n3ncc(Br)c3n2)CC1	> 5.33 µM
COc1ccccc1-c1nnc(CNc2nc(N3CCN(C)CC3)nc3c(C4CC4(F)F)cnn23)[nH]1 (stereo not shown)	> 20 µM
CN[C@H]1CCN(c2nc(NCc3nc4ccccc4[nH]3)n3ncc(Br)c3n2)C1	> 20 µM

Next:
Entry CO[C@@H]1CCN(c2nc(NCc3nc4ccccc4[nH]3)n3ncc(Br)c3n2)C1 ; IC50 = > 16.5 µM

====

assay_target: CDK12/CycK (Homo sapiens, UniProt Q9NYV4)
Sequence (Q9NYV4 with tags, fused parts or gaps): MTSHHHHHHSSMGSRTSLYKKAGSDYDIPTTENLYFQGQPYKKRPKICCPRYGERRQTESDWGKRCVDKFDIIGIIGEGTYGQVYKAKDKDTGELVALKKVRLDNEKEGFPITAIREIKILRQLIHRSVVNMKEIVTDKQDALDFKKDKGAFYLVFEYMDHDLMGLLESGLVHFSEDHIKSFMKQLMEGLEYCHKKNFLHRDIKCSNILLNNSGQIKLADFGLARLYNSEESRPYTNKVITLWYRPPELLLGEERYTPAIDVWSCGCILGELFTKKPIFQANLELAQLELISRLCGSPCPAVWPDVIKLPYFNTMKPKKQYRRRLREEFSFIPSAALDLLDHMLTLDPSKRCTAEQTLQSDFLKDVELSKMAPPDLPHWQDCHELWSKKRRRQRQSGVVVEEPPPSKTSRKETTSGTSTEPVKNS
Sequence (O75909 1-300 partner limits assumed): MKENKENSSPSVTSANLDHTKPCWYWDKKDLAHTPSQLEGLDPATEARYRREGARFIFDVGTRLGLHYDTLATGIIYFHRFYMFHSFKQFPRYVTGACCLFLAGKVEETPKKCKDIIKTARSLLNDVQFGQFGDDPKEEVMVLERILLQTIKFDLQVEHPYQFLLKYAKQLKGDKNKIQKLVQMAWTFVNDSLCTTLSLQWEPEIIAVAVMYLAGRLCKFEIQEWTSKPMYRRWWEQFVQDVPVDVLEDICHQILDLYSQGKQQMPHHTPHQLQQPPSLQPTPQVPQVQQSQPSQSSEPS
assay_name: CDK12/CycK high ATP kinase assay (TR-FRET, 2 mM ATP)
Format: biochemical
measurement_parameters: 2 mM ATP (high ATP); median; read-out: CDK12/CyclinK, 2 mM ATP (high ATP), IC50-[mol/l] (median)
readout_label: pIC50
Answers are plain numbers, as −log10 of the molar value.

CN(c1nc(NCc2nc3ccccc3[nH]2)n2ncc(Br)c2n1)[C@H]1C[C@@H](O)C1	5.18
Cc1ccccc1-c1cnc(CNc2nc(N3CCOCC3)nc3c(Br)cnn23)[nH]1	5.20
Fc1c(Cl)ccc2[nH]c(CNc3nc(N4CCOCC4)nc4c(Br)cnn34)nc12	6.57
CC(C)(O)CNc1nc(NCc2nc3ccccc3[nH]2)n2ncc(Br)c2n1	5.26
Brc1cnn2c(NCc3nc4ccccc4[nH]3)nc(N3C[C@H]4C[C@@H]3CN4)nc12	5.06
CN1CCN(c2nc(NCc3nc4cc(Cl)ccc4[nH]3)n3ncc(C(F)(F)F)c3n2)CC1	5.08

Count: 3. Required value per item: pIC50.
1. COc1ccc2[nH]c(CNc3nc(N4CCOCC4)nc4c(C(F)(F)F)cnn34)nc2c1
2. Brc1cnn2c(NCc3nc4ccccc4[nH]3)nc(N3CC4CCC3CN4)nc12 (stereo not drawn)
3. CN(c1nc(NCc2nc3ccccc3[nH]2)n2ncc(Br)c2n1)[C@H]1C[C@H](O)C1

Result:
1. 6.93
2. 5.26
3. 5.23

Count: 2. Required value per item: pIC50.
1. CN(CC(C)(C)O)c1nc(NCc2nc3cc(Cl)c(Cl)cc3[nH]2)n2ncc(C3CC3)c2n1
2. OC1CCN(c2nc(NCc3nc4ccccc4[nH]3)n3ncc(Br)c3n2)CC1

Result:
1. 5.73
2. 5.24

====

assay_target: CDK12 (nuclear staining in CAL-120 cells) (Homo sapiens, UniProt Q9NYV4)
Construct: endogenous in cells; host or cells: CAL-120 human breast cancer cells (DSMZ ACC 459)
Sequence (Q9NYV4 whole entry): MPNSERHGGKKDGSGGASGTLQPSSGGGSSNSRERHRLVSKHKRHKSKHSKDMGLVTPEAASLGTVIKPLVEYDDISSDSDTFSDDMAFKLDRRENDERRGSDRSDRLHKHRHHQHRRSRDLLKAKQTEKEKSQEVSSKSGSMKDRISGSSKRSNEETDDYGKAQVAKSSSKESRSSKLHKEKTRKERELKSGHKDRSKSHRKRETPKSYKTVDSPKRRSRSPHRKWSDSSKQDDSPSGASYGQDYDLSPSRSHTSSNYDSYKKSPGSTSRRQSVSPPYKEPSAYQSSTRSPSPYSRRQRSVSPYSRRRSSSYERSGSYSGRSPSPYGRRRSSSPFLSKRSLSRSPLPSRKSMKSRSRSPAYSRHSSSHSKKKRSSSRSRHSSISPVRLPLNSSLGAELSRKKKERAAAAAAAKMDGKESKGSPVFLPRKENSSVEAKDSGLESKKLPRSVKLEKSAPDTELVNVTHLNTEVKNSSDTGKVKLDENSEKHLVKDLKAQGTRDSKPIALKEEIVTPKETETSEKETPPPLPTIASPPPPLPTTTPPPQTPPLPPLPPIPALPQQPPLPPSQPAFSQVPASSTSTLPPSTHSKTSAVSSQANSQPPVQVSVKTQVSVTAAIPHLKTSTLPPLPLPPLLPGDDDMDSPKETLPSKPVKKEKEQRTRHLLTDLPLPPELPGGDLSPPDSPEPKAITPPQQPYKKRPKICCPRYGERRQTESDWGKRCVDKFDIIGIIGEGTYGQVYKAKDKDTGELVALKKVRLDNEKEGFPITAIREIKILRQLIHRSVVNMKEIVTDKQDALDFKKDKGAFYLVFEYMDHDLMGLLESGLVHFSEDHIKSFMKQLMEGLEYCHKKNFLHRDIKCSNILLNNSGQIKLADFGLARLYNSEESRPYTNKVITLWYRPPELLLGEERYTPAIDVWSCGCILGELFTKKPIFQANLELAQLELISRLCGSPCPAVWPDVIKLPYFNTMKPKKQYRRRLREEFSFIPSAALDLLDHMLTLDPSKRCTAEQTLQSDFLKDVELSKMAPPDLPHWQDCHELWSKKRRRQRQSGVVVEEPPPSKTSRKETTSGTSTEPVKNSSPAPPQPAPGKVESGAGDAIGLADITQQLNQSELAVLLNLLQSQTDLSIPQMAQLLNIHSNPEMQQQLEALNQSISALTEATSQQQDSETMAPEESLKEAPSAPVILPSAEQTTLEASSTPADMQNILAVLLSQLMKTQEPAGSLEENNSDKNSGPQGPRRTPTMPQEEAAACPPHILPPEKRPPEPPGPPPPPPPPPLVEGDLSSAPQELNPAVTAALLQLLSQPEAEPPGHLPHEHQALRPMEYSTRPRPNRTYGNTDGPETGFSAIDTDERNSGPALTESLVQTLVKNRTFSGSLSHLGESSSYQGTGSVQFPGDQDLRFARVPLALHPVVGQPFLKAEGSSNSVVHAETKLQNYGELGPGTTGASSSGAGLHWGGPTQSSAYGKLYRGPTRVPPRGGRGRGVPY
Sequence (O75909 whole entry partner): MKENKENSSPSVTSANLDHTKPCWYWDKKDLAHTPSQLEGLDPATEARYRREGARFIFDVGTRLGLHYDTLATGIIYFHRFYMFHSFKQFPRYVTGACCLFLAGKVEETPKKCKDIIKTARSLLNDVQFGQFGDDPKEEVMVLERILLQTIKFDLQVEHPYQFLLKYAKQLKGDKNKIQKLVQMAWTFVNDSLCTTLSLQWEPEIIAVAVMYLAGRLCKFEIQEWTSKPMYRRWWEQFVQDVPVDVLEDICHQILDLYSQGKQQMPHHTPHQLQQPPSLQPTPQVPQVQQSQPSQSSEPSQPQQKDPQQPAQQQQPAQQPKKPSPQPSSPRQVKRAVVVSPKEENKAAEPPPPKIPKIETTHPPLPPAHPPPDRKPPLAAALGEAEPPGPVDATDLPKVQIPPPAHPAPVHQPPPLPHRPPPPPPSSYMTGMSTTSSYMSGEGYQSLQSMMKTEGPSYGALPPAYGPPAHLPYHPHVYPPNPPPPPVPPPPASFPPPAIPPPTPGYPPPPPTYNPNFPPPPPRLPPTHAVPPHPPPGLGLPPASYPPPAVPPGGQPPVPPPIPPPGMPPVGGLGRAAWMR
assay_name: CDK12 nuclear protein level: immunofluorescence/high content analysis (CAL-120)
Type: cell-based
measurement_parameters: ratio of IC50 CDK12 high ATP kinase assay to DC50 CDK12 degradation (IF, CAL-120)
readout_label: (IC50 CDK12 high ATP) to (Degradation DC50 CDK12) ratio

Answered examples (2):
Cc1cnn2c(NCc3nc4ccccc4[nH]3)nc(N3CC4CCC(C3)N4)nc12	>649
Clc1ccccc1-c1nnc(CNc2nc(N3CCOCC3)nc3c(Br)cnn23)[nH]1	>68

Entry CN(C)[C@@H]1CCN(c2nc(NCc3nc4ccccc4[nH]3)n3ncc(Br)c3n2)C1 ; (IC50 CDK12 high ATP) to (Degradation DC50 CDK12) ratio = >783

====

assay_target: CDK2/CycE (Homo sapiens, UniProt P24941)
assay_name: CDK2/CycE kinase assay (TR-FRET, 2 mM ATP)
measurement_parameters: 2 mM ATP (high ATP); median; read-out: CDK2/CyclinE, 2 mM ATP (high ATP), IC50 (median)
pIC50: −log10 of the molar value.
Please provide measured pIC50 for the entries that follow.

Answered examples (3):
FC(F)(F)c1cnn2c(NCc3nc4cc(Cl)ccc4[nH]3)nc(N3CCOCC3)nc12	< 4.70
CC(C)c1cnn2c(NCc3nnc(-c4ccccc4)[nH]3)nc(N3CCN(C)CC3)nc12	< 4.82
Fc1ccc2[nH]c(CNc3nc(N4CCOCC4)nc4c(C5CC5(F)F)cnn34)nc2c1 (racemic) [Example 286]	< 4.70

Next:
Entry Cc1cnn2c(NCc3nc4ccccc4[nH]3)nc(N3CC4CCC(C3)N4)nc12 ; pIC50 = < 4.70

====

Please provide measured IC50 for the entries that follow.
Tested on: CAL-120, human breast adenocarcinoma cells
assay_name: Proliferation assay CAL-120 (crystal violet, 4 days)
Type: cell-based
measurement_parameters: Homo sapiens, CAL-120, 96 h, CAL-120 cells, median, read-out: Prolif-CAL-120, IC50-[mol/l] (median)

Count: 7. Required value per item: IC50.
1. CN(CC(C)(C)O)c1nc(NCc2nc3c(F)cccc3[nH]2)n2ncc(Cl)c2n1
2. Fc1cccc(-c2nnc(CNc3nc(N4C[C@H]5C[C@@H]4CO5)nc4c(Br)cnn34)[nH]2)c1
3. Brc1cnn2c(NCc3nc4ccccc4[nH]3)nc(N3CCN4CCC3CC4)nc12
4. FC(F)n1cc(-c2cnn3c(NCc4nc5ccccc5[nH]4)nc(N4CCOCC4)nc23)cn1
5. Brc1cnn2c(NCc3nc4ccccc4[nH]3)nc(N3CCN4CCC[C@H]4C3)nc12
6. CN1CCN(c2nc(NCc3nc4cc(C(F)(F)F)ccc4[nH]3)n3ncc(Br)c3n2)CC1
7. Brc1cnn2c(NCc3nnc(-c4ccccc4)[nH]3)nc(N3CCOCC3)nc12

Result:
1: 31.3 nM; 2: 5.78 nM; 3: 3.76 nM; 4: 38.3 nM; 5: 109 nM; 6: 2.7 nM; 7: 35.7 nM

====

assay_target: CYCLIN K (nuclear staining in CAL-120 cells) (Homo sapiens)
Construct: endogenous in cells; host or cells: CAL-120 human breast cancer cells (DSMZ ACC 459)
Sequence (O75909 whole entry): as the sequence (O75909 whole entry partner) above
Sequence (Q9NYV4 whole entry partner): as the sequence (Q9NYV4 whole entry) above
assay_name: CYCLIN K nuclear protein level: immunofluorescence high content analysis (CAL-120)
Type: cell-based
measurement_parameters: 24 h, 50% reduction of nuclear CCNK staining intensity, median, read-out: CYCLIN K degradation IF, DC50-[mol/l] (median)
Experimental: 8. CYCLIN K nuclear protein level: immunofluorescence High Content Analysis CAL-120 human breast cancer cells (DSMZ ACC 459) are seeded in 1536-well microtiter plates (800 cells per well) containing 50 nanoL of compounds in Dose-Response. Control wells received DMSO or Example 4. […] Nuclear and cytoplasmic intensity as well as the nuclear/cytoplasmic intensity ratio is determined by automated image analysis using custom generated scripts (MetaXpress). […]
readout_label: DC50 (nM)
One number for each entry, in nM.

Count: 5. Required value per item: DC50.
1. FC(F)(F)Cc1cnn2c(NCc3nc4cc(Cl)c(Cl)cc4[nH]3)nc(N3CCOCC3)nc12
2. Fc1cccc(-c2nnc(CNc3nc(N4CCOCC4)nc4c(Br)cnn34)[nH]2)c1
3. FC(F)(F)c1cnn2c(NCc3nnc(-c4ccccc4)[nH]3)nc(N3CCOCC3)nc12
4. Brc1cnn2c(NCc3nc4ccccc4[nH]3)nc(N3C[C@@H]4C[C@H]3CN4)nc12
5. c1ccc2[nH]c(CNc3nc(N4CCOCC4)nc4c(C5CCCC5)cnn34)nc2c1

Result:
1.66
2.58
9.95
0.19
15.6

====

assay_target: CDK12/CycK (Homo sapiens, UniProt Q9NYV4)
assay_name: CDK12/CycK high ATP kinase assay (TR-FRET, 2 mM ATP)
measurement_parameters: 2 mM ATP (high ATP); median; read-out: CDK12/CyclinK, 2 mM ATP (high ATP), IC50-[mol/l] (median)
pIC50: −log10 of the molar value.
Please provide measured pIC50 for the entries that follow.

Answered examples (2):
Fc1ccc2[nH]c(CNc3nc(N4C[C@@H]5C[C@H]4CO5)nc4c(C5CC5)cnn34)nc2c1F	< 4.70
CN1C[C@H]2C[C@@H]1CN2c1nc(NCc2nc3ccccc3[nH]2)n2ncc(Br)c2n1	< 4.70

Next:
Entry COc1cccc2nc(CNc3nc(N4CCN(C)CC4)nc4c(-c5nccs5)cnn34)[nH]c12 ; pIC50 = < 4.70

====

assay_target: CDK12 (nuclear staining in CAL-120 cells) (Homo sapiens, UniProt Q9NYV4)
Construct: endogenous in cells; host or cells: CAL-120 human breast cancer cells (DSMZ ACC 459)
assay_name: CDK12 nuclear protein level: immunofluorescence/high content analysis (CAL-120)
Assay type: cell-based
measurement_parameters: ratio of IC50 CDK12 high ATP kinase assay to DC50 CDK12 degradation (IF, CAL-120)
Answer False if (IC50 CDK12 high ATP) to (Degradation DC50 CDK12) ratio is under 600, and True if it is 600 or more.

# example entries with known answers
Fc1ccc2[nH]c(CNc3nc(N4CCNCC4)nc4c(C5CC5)cnn34)nc2c1F	True
Brc1cnn2c(NCc3nc4ccccc4[nH]3)nc(N3C[C@@H]4C[C@H]3CN4)nc12	True
FC(F)(F)c1cnn2c(NCc3nc4cc(Cl)ccc4[nH]3)nc(N3CCOCC3)nc12	False
O[C@@H]1CCN(c2nc(NCc3nc4ccccc4[nH]3)n3ncc(Br)c3n2)C1	False

Request: Quick check, (IC50 CDK12 high ATP) to (Degradation DC50 CDK12) ratio >= 600? C[C@@H]1CN(c2nc(NCc3nc4c(F)cccc4[nH]3)n3ncc(Br)c3n2)C[C@H](C)O1
Result: False

Request: Quick check, (IC50 CDK12 high ATP) to (Degradation DC50 CDK12) ratio >= 600? COC(=O)C1CCN(c2nc(NCc3nc4ccccc4[nH]3)n3ncc(Br)c3n2)CC1
Result: False

Request: Quick check, (IC50 CDK12 high ATP) to (Degradation DC50 CDK12) ratio >= 600? CO[C@H]1CCN(c2nc(NCc3nc4ccccc4[nH]3)n3ncc(Br)c3n2)C1
Result: False

Request: Quick check, (IC50 CDK12 high ATP) to (Degradation DC50 CDK12) ratio >= 600? C[C@H]1CN(c2nc(NCc3nc4ccccc4[nH]3)n3ncc(Br)c3n2)CCN1C
Result: True

Request: Quick check, (IC50 CDK12 high ATP) to (Degradation DC50 CDK12) ratio >= 600? CN1CCN(c2nc(NCc3nc4cc(F)c(F)cc4[nH]3)n3ncc(C4CC4)c3n2)CC1
Result: True
